# method notes: Covalent irreversible binding affinity to recombinant Escherichia coli beta-glucuronidase assessed as inhibition constant incubated for 30 mins
measurement name: pKi
Keep it numeric: pKi is minus log10 of the concentration in mol/L.

Requested read-out: pKi. Entry: CC(=O)OC[C@H]1O[C@@H](n2cnc3c(-n4[se]c5ccccc5c4=O)ncnc32)[C@H](OC(C)=O)[C@@H]1OC(C)=O
5.23

====

# method notes: Binding affinity to Escherichia coli beta-glucuronidase assessed as inhibition constant
measurement name: pKi
Keep it numeric: pKi is minus log10 of the concentration in mol/L.

Requested read-out: pKi. Entry: Clc1ccc2c(c1)C(N1CCNCC1)=Nc1ccccc1O2
6.74
